# System: Striga hermonthica seeds
# METHOD: Germination stimulation activity assay on S. hermonthica seeds
# Format: in vivo
RECORDED_METRIC: EC50 (nM)
Number only, in nM; omit the unit.

For this compound ( CC1=CC(O)OC1=O [D-OH, 4-Hydroxy-2-methylbut-2-en-4-olide] ), measured EC50 is 1200

###

# System: A. thaliana htl-3/ShHTL7 seeds
# METHOD: Arabidopsis germination assay, htl-3 expressing ShHTL7
# Assay type: in vivo
RECORDED_METRIC: pEC50
Answer as the number alone; pEC50 is minus log10 of concentration in mol/L.

# pEC50 of CC1=CC(O)OC1=O [D-OH, 4-Hydroxy-2-methylbut-2-en-4-olide] = 5.51
